Attribute: ELISA_avg
Target: T1, CD123 (Homo sapiens (Human), UniProt P26951 19-305, limits assumed)
T1 construct: The CD123 construct used in the ELISA is not described; also called CD123-Signal
T1 sequence: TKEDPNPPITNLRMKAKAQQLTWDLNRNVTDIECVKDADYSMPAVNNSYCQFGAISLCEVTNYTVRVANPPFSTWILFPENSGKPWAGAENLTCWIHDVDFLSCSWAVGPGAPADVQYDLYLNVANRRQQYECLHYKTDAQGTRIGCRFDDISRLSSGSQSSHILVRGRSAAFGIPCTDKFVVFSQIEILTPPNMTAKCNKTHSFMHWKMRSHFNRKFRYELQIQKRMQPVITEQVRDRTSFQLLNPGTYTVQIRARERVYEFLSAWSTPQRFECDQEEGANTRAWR
Assay: ELISA
Design: unit not given here
Please reply with the number alone, leaving off any unit.

Below, each entry is followed by its recorded ELISA_avg result.
In [3]: df
Out[3]:
                                     binder  quantitativereadout
0  D domain of SEQ ID NO: 402 (designed binder) MGSWFEFDDRLWAIENRLWALGGSEAELAAFEKEIAAFESELQAYKGKGNPEVEVLRDNAAWIREILQAYRHN                  4.2
1  D domain of SEQ ID NO: 368 (designed binder) MGSWDEFYYRLEAIEMRLGALGGSEAELAAFEKEIAAFESELQAYKGKGNPEVEELRHYAAQIRHMLQAYRHN                  7.2
2  D domain of SEQ ID NO: 437 (designed binder) MGSWIEFNMRLDAIYERLVALGGSEAELAAFEKEIAAFESELQAYKGKGNPEVEWLRKVAANIRLELQAYRHN                 11.4
3  D domain of SEQ ID NO: 463 (designed binder) MGSWYEFDYRLDAIYDRLAALGGSEAELAAFEKEIAAFESELQAYKGKGNPEVERLRKWAANIREELQAYRHN                 24.9

Read the next record carefully.
Which ELISA_avg is listed for D domain of SEQ ID NO: 454 (designed binder) MGSWNEFAWRLDAIYSRLAALGGSEAELAAFEKEIAAFESELQAYKGKGNPEVEWLRVAAANIRYELQAYRHN ? 17.7
